So I've got a bunch of compounds here, and I need their normalized growth values.
Measurement protocol: chemical genetic growth profiling, strain panel (AID 1159580);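 also: tested at 20 µM; growth read once vehicle control cultures reached saturation at 30 °C; 1 = growth at the plate median or of vehicle wells; lower values mean less growth of the strain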
Setup conditions: S. cerevisiae deletion strains, growth OD, locus YKL009W, strain mrt4, hits give low values
About 2,000 (36%) of roughly 5,500 compounds were called active. About 18% were inconclusive and are not listed. The list shows a part of the results.
Answers are plain numbers.

Below are worked cases with known answers.
{"columns": ["Compound", "Experimental endpoint", "Experimental value"],
 "data": [
  ["COC(=O)/C(=C1\\OC(=O)C(c2ccccc2)=C1O)c1ccccc1", "normalized growth", 1.01],
  ["CN(C)[C@@H]1C(=O)C(C(N)=O)=C(O)[C@@]2(O)C(=O)C3=C(O)c4c(O)ccc(Cl)c4[C@@H](O)[C@H]3C[C@@H]12", "normalized growth", 1],
  ["C=C(C)C1(O)OC(=O)C=C1OC (centres undefined)", "normalized growth", 1.01],
  ["CC(C)=CC1C(C(=O)O)C1(C)C (centres undefined)", "normalized growth", 0.963],
  ["CCN(CC)CCOC(=O)C(c1ccccc1)C1CCCCC1 (centres undefined)", "normalized growth", 0.962],
  ["CC(=O)Oc1ccc(C(c2ccc(OC(C)=O)cc2)c2ccccn2)cc1", "normalized growth", 0.985]
]}

Can you give me normalized growth for all of these, one by one?
1. CN[C@@H]1[C@H](O)[C@H](NC)[C@H]2O[C@@]3(O)C(=O)C[C@@H](C)O[C@H]3O[C@@H]2[C@H]1O
2. C=C1C[C@]23C[C@@]1(O)CC[C@H]2[C@@]12C=C[C@H](O)[C@@](C)(C(=O)O1)[C@H]2[C@@H]3C(=O)O
3. CCN(CC)CCOC(=O)C1(C2CCCCC2)CCCCC1
4. CC(=O)Oc1cccc(O)c1

Result:
1. 1.02
2. 1.03
3. 0.971
4. 1.01

====

Measurement protocol: chemical genetic growth profiling, strain panel (AID 1159580);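 also: tested at 20 µM; growth read once vehicle control cultures reached saturation at 30 °C; 1 = growth at the plate median or of vehicle wells; lower values mean less growth of the strain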
Setup conditions: S. cerevisiae deletion strains, growth OD, locus YPL055C, strain LGE1
About 2,000 (36%) of roughly 5,500 compounds were called active. Another 18% or so got no clear call; they are omitted. Cut-off read from the data, not from the text of the source: active = normalized growth mostly below about 0.91 (no sharp cut-off); inconclusive = no clear call, values can overlap the other calls; inactive = mostly above about 0.92. The list shows a part of the results.
Give one outcome, nothing more. List: 1 (yes) (active), 0 (no) (inactive)

{"columns": ["Compound", "Assigned class"],
 "data": [
  ["NC(Cn1ccc(=O)c(O)c1)C(=O)O (centres undefined)", "0 (no)"],
  ["CC(C)CCCC(C)[C@H]1CCC2C3C(=O)C=C4C[C@@H](O)CC[C@]4(C)C3CC[C@@]21C (some centres undefined)", "0 (no)"],
  ["C[N+]1(C)CCOC(O)(c2ccc(-c3ccc(C4(O)C[N+](C)(C)CCO4)cc3)cc2)C1 (centres undefined)", "0 (no)"],
  ["OC(c1ccccc1)(c1ccccc1)c1ccncc1", "0 (no)"],
  ["Nc1ncnc2c1ncn2C1CCCO1 (centres undefined)", "0 (no)"]
]}

Problem: Outcome? O=C(O)C1=CCCNC1
Result: 0 (no)

Problem: Hey, what did the test say about CC(C)CCCC(C)C1CC[C@@]2(C)C3=C(CC[C@]12C)[C@@]1(C)CC[C@H](O)C(C)(C)C1CC3 (some centres undefined) ?
Result: 0 (no)

Problem: Status in this test for NNCc1cccc(O)c1 ?
Result: 0 (no)

Problem: What call does the record list for Cc1c(C)c2c(c(C)c1O)CCC(C)(CN1CCN(c3cc(N4CCCC4)nc(N4CCCC4)n3)CC1)O2 (centres undefined) ?
Result: 0 (no)

Problem: // return assay outcome for Cc1onc(-c2c(Cl)cccc2Cl)c1NC(=O)O/N=C\c1ccc(N(C)C)cc1
Result: 1 (yes)

Problem: Field: outcome | Entry: CC12CCC(=O)C=C1CCC1C2[C@@H](O)CC2(C)C1CC[C@]2(O)C(=O)COP(=O)(O)O (some centres undefined)
Result: 0 (no)

Problem: Per the assay record, what outcome was assigned to c1ccc(-c2nc(-c3cccs3)cs2)cc1 ?
Result: 1 (yes)

Problem: Just curious, what result did Cn1ncc(C(=O)O/N=C(/N)c2cc(C(F)(F)F)cc(C(F)(F)F)c2)c1-n1cccc1 get here?
Result: 0 (no)

Problem: Assay result, entry Oc1cccc(O)c1 — outcome?
Result: 0 (no)

====

Measurement protocol: chemical genetic growth profiling, strain panel (AID 1159580);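 also: tested at 20 µM; growth read once vehicle control cultures reached saturation at 30 °C; 1 = growth at the plate median or of vehicle wells; lower values mean less growth of the strain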
Setup conditions: S. cerevisiae deletion strains, growth OD, locus YLR039C, strain RIC1, hits give low values
Hit rate of the full screen: of about 5,500 compounds, about 2,000 (36%) were called active. About 18% were inconclusive and are not listed. The list shows a part of the results.
Experimental endpoint: normalized growth
One number for each entry.

Previously resolved entries follow.
{"columns": ["Compound", "Experimental value"],
 "data": [
  ["CCN(CC)CCOC(=O)C1(C2CCCCC2)CCCCC1", 1.3],
  ["CC(CCC(=O)O)[C@H]1CCC2C3CC[C@@H]4CC(=O)CC[C@]4(C)C3C=C[C@@]21C (stereo partly drawn)", 0.953],
  ["CNNC", 1.09],
  ["CCN(CC)CCOC(=O)C(c1ccccc1)C1CCCCC1 (stereo not drawn)", 1.12]
]}

State recorded normalized growth for all listed compounds.
1. CC(=O)O[C@@H]1CC2C(C)(C)C(=O)C=C[C@]2(C)C2CC[C@]3(C)C(=CC(=O)O[C@H]3c3ccoc3)[C@@]21C (stereo partly drawn)
2. CC(C)=CCc1c2c(c3occ(-c4ccc(O)cc4)c(=O)c3c1O)C=CC(C)(C)O2
3. C=C(C)C1CCC(C)(O)C2CC3OC3(C)C2C1 (stereo not drawn)
4. CCCSc1ccc2nc(NC(=O)OC)[nH]c2c1
5. C[C@H](CCC(=O)O)[C@H]1CCC2C3C(=O)CC4CC(=O)CC[C@]4(C)C3CC(=O)[C@@]21C (stereo partly drawn)

Result:
1. 0.971
2. 0.863
3. 0.992
4. 0.731
5. 0.955

Hi team, please reply with normalized growth for each item in this list.
1. NC(=S)CSc1ccccc1
2. Cc1c(C)c2c(c(C)c1O)CCC(C)(CCCC(C)CCCC(C)CCCC(C)C)O2 (stereo not drawn)
3. Cc1cc(C)c(Cn2nc(C(C)(C)C)cc2C(=O)Nc2cccc(C(F)(F)F)c2)c(C)c1
4. O=C(O)C1=CCCNC1

Result:
1. 0.883
2. 1.02
3. 1.02
4. 0.963

Batch: normalized growth for all items listed.
1. CCCOc1ccc2nc(NC(=O)OC)[nH]c2c1
2. CC[N+](C)(C)c1cccc(O)c1
3. CC(C)CC1NC(=O)CNC1=O (stereo not drawn)

Result:
[0.833, 0.993, 0.964]

# batch: return normalized growth for each of the 3 compounds below
1. CCC(C)C(=O)OC1[C@@H]2CC3=C4CC(=O)O[C@@H](c5ccoc5)[C@]4(C)CCC3[C@@](C)(C2=O)[C@@H](CC(=O)OC)C1(C)C (stereo partly drawn)
2. Cn1c(CSc2ccccc2)n[nH]c1=S
3. CC(=O)O[C@@H]1CC2C(C)(C)[C@H](O)C=C[C@]2(C)C2CC[C@]3(C)C(=CC(=O)O[C@H]3c3ccoc3)[C@@]21C (stereo partly drawn)

Result:
[0.974, 1.05, 1.07]

// each listed compound needs a value for normalized growth
1. Cc1cccc(Cn2nc(C(C)(C)C)cc2C(=O)O)c1
2. CSc1ncc(C#N)c2nc(-c3ccc(N(C)C)cc3)nn12
3. CC12CCC(O)CC1CCC1C2[C@H](O)CC2(C)C(C3=CC(=O)OC3)CCC12O (stereo partly drawn)
4. CC(C)(C)c1cc(C(=O)NNC(=O)c2cc(C(F)(F)F)cc(C(F)(F)F)c2)n(Cc2ccc(F)cc2)n1

Result:
1. 0.882
2. 1.08
3. 1.1
4. 1.02

====

Measurement protocol: chemical genetic growth profiling, strain panel (AID 1159580);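 also: tested at 20 µM; growth read once vehicle control cultures reached saturation at 30 °C; 1 = growth at the plate median or of vehicle wells; lower values mean less growth of the strain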
Setup conditions: S. cerevisiae deletion strains, growth OD, locus YLR268W, strain sec22, hits give low values
The campaign covered roughly 5,500 compounds. About 2,000 (36%) were called active. Roughly 18% stayed inconclusive and do not appear here. This is one part of the list.
Consider the following compounds; for each one, report its normalized growth.

See these solved cases before continuing.
{"columns": ["Compound", "normalized growth"],
 "data": [
  ["CC(=O)N[C@@H](Cc1c[nH]c2ccccc12)C(N)=O", "0.96 (inactive)"],
  ["CC(Cc1cccc(C(F)(F)F)c1)NCCOC(=O)c1ccccc1 (stereo unspecified)", "0.992 (inactive)"],
  ["NCC(=O)c1ccccc1", "0.986 (inactive)"],
  ["O=C(OCc1ccccc1)c1ccccc1", "0.941 (inactive)"]
]}

Give normalized growth for each listed item.
1. O=C(O)c1cc(O)c2c(c1)[C@@H]([C@H]1c3cc(C(=O)O)cc(O)c3C(=O)c3c(O[C@H]4O[C@H](CO)[C@@H](O)[C@H](O)[C@H]4O)cccc31)c1cccc(O[C@H]3O[C@H](CO)[C@@H](O)[C@H](O)[C@H]3O)c1C2=O
2. CC12CCC(=O)C=C1CCC1C2[C@@H](O)CC2(C)C1CC[C@]2(O)C(=O)COP(=O)(O)O (stereo partly specified)
3. CNNC
4. CC(C)=CC1C(C(=O)O)C1(C)C (stereo unspecified)

Result:
0.998 (inactive)
0.993 (inactive)
1.02 (inactive)
0.972 (inactive)

For each listed entry, give its normalized growth.
1. CC(C)=CCc1c2c(c3occ(-c4ccc(O)c(O)c4)c(=O)c3c1O)C=CC(C)(C)O2
2. CC(=O)c1ccc(O)c(CC=C(C)C)c1
3. NC(=O)NC(=O)Cc1ccccc1
4. C/C1=C\CC(C)(C)/C=C/CC2(C)OC2CC1 (stereo unspecified)
5. CC(C)CC1NC(=O)CNC1=O (stereo unspecified)

Result:
0.495 (active)
0.959 (inactive)
0.985 (inactive)
0.99 (inactive)
1.01 (inactive)

For each of the compounds below, state normalized growth.
1. CC(=O)c1cc(CC=C(C)C)c(O)c(CC=C(C)C)c1
2. NCC(N)C(=O)c1ccccc1 (stereo unspecified)
3. Cc1cc(=O)[nH]c(=S)[nH]1

Result:
1: 0.924 (inactive); 2: 0.991 (inactive); 3: 1.08 (inactive)
